SYSTEM NAME: PME-1 (Protein phosphatase methylesterase 1) (Homo sapiens, UniProt Q9Y570)
Sequence (Q9Y570 whole entry, species assumed): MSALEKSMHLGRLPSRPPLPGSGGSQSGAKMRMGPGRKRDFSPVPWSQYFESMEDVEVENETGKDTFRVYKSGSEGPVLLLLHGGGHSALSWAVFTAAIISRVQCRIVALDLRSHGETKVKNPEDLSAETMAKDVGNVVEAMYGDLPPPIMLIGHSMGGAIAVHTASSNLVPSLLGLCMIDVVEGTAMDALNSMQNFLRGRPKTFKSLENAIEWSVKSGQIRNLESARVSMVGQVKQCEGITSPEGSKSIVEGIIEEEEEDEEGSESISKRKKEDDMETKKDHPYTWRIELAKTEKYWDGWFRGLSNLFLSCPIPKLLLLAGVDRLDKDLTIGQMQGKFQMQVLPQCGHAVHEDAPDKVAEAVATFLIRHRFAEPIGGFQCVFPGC
TEST DETAILS: Demethylation of PP2A by PME-1, radioactive filter binding assay
Type: biochemical
EXPERIMENTAL PARAMETERS: GSE flavonoids / grape seed components; read-out: IC50, PP2A demethylation activity assay
Some molecules, each annotated with its measured IC50.

MOLECULE: C=CCc1ccc(O)c(OC)c1
IC50: > 15 µM
//
MOLECULE: CCCCC(C#N)(Cn1cncn1)c1ccc(Cl)cc1 (centres unmarked)
IC50: > 15 µM
//
MOLECULE: Oc1cc(O)c2c(c1)O[C@H](c1ccc(O)c(O)c1)[C@@H](O)[C@@H]2c1c(O)cc(O)c2c1O[C@H](c1ccc(O)c(O)c1)[C@@H](O)C2
IC50: > 35 µM
//
MOLECULE: COc1c(O)cc2oc3cc(O)c(CC=C(C)C)c(O)c3c(=O)c2c1CC=C(C)C
IC50: 1.7 µM
//
MOLECULE: O=C(O[C@@H]1Cc2c(O)cc(O)cc2O[C@@H]1c1cc(O)c(O)c(O)c1)c1cc(O)c(O)c(O)c1 [Epigallocatechin gallate]
IC50: 2.6 µM
//
MOLECULE: O=c1cc(-c2ccc(O)c(O)c2)oc2cc(O)cc(O)c12
IC50: 1.7 µM
//
MOLECULE: O=c1cc(-c2ccc(O)c(O)c2)oc2c([C@@H]3O[C@H](CO)[C@@H](O)[C@H](O)[C@H]3O)c(O)cc(O)c12
IC50: > 25 µM
//
MOLECULE: O=C(O)/C=C/c1ccc(O)c(O)c1
IC50: > 15 µM
//
MOLECULE: Oc1cc(O)c2c(c1)O[C@H](c1ccc(O)c(O)c1)[C@H](O)[C@H]2c1c(O)cc(O)c2c1O[C@H](c1ccc(O)c(O)c1)[C@H](O)C2
IC50: > 35 µM
//
MOLECULE: Oc1cc(O)c2cc(O)c(-c3cc(O)c(O)c(O)c3)[o+]c2c1
IC50: 5.1 µM
//
MOLECULE: CC(C)(O)[C@@H]1[C@H]2OC(=O)[C@@H]1[C@]1(O)C[C@H]3O[C@]34C(=O)O[C@H]2[C@]14C
IC50: > 25 µM
//
MOLECULE: O=C(O)[C@H]1O[C@@H](Oc2cc3oc(-c4ccc(O)cc4)cc(=O)c3c(O)c2O)[C@H](O)[C@@H](O)[C@@H]1O
IC50: 4.9 µM
//
MOLECULE: COc1cc(O)c(C(=O)/C=C/c2ccc(O)cc2)c(OC)c1 [2′,4-dihydroxy-4′,6′-dimethoxychalcone]
IC50: > 25 µM
//
MOLECULE: COc1cc(/C=C/C(=O)O)ccc1O
IC50: > 15 µM
